Values from the supplement of paper PMC10702517

# Assay procedure: chemical recovery from spiked human plasma; higher = better extraction
# Protocol conditions: pooled human plasma; extraction method: SPE only (HLB 96-well), PES comparison experiment
Experimental readout: chemical recovery (%)

compound="CCCCC(CC)COP(=O)(OCC(CC)CCCC)OCC(CC)CCCC (centres undefined) [Tris(2-ethylhexl)phosphate]" units_of_measure=% numeric_result=4.16
compound="c1ccc(-c2cccc3ccccc23)cc1 [1-Phenylnaphthalene]" units_of_measure=% numeric_result=17.3
compound="CC(=O)[C@@]1(O)CC[C@H]2[C@@H]3C=C(Cl)C4=CC(=O)[C@@H]5C[C@@H]5[C@]4(C)[C@H]3CC[C@@]21C [Cyproterone]" units_of_measure=% numeric_result=44.8
compound="COCCN(C(=O)CS(=O)(=O)O)c1c(C)cccc1C [Dimethachlor ESA]" units_of_measure=% numeric_result=50.3

---

# Assay procedure: chemical recovery from spiked human plasma; higher = better extraction
# Protocol conditions: pooled human plasma; extraction method: SPE only (HLB 96-well)
The threshold is inclusive: chemical recovery of exactly 30% counts as Satisfied; values below receive Not satisfied.

molecule=CCCCCCCCCCCCCCCC[N+](C)(C)C category=Satisfied
molecule="CNC1(c2ccccc2Cl)CCCCC1=O (stereo not given)" category=Satisfied
molecule=O=C(c1ccccc1)C1CCCCC1 category="Not satisfied"
molecule="COC(=O)CCc1cc(C(C)(C)C)c(O)c(C(C)(C)C)c1 [Methyl-3-(3,5-di-tert-butyl-4-hydroxyphenyl)propionate]" category="Not satisfied"
molecule=ClC=C(c1ccc(Cl)cc1)c1ccc(Cl)cc1 category="Not satisfied"

---

# Assay procedure: chemical recovery from spiked human plasma; higher = better extraction
# Protocol conditions: pooled human plasma; extraction method: solvent precipitation (ACN + hexane)
Measured chemical recovery, listed per entry.
Experimental readout: chemical recovery (%)

molecule="N#C/N=C1\\SCCN1Cc1ccc(Cl)nc1 [Thiacloprid]" experimental_readout="chemical recovery" numeric_result=79.2
molecule="CC1(C)[C@@H](O[C@H]2O[C@H](C(=O)O)[C@@H](O)[C@H](O)[C@H]2O[C@@H]2O[C@H](C(=O)O)[C@@H](O)[C@H](O)[C@H]2O)CC[C@]2(C)[C@H]3C(=O)C=C4[C@@H]5C[C@@](C)(C(=O)O)CC[C@]5(C)CC[C@@]4(C)[C@]3(C)CC[C@@H]12 [Glycyrrhizin]" experimental_readout="chemical recovery" numeric_result=0.719
molecule="Cn1c(N)nc2ncc(-c3ccccc3)cc21 [2-Amino-1-methyl-6-phenylimidazo[4,5-b]pyridine-(PhIP)]" experimental_readout="chemical recovery" numeric_result=70.9
molecule="CC(C)C1(C)N=C(c2ncccc2C(=O)O)NC1=O (stereo not given) [Imazapyr]" experimental_readout="chemical recovery" numeric_result=67.7
molecule="Cc1cc(O)cc(C)c1[S+](C)[O-] (stereo not given) [Methiocarb-sulfoxide-phenol]" experimental_readout="chemical recovery" numeric_result=73.1

---

# maps each entry to its chemical recovery into PDMS
# Assay procedure: chemical recovery into PDMS from spiked human plasma; higher = better extraction
# Protocol conditions: pooled human plasma; extraction method: PES with PDMS; equilibration time (d): 3
Experimental readout: chemical recovery into PDMS (%)

compound=C[Si](Cn1cncn1)(c1ccc(F)cc1)c1ccc(F)cc1 experimental_readout="chemical recovery into PDMS" numeric_result=45.7
compound=c1cc2c3c(c1)ccc1cccc(c13)C2 experimental_readout="chemical recovery into PDMS" numeric_result=93.2
compound="CC1C(C)(C)C2=C(C(=O)CCC2)C1(C)C (stereo not given)" experimental_readout="chemical recovery into PDMS" numeric_result=23.2
compound="NC(=O)c1ccc(N)cc1 [4-Aminobenzamide]" experimental_readout="chemical recovery into PDMS" numeric_result=0.844
compound=C1=Cc2ccccc2Nc2ccccc21 experimental_readout="chemical recovery into PDMS" numeric_result=2.02

---

Overview of reported chemical recovery across a group of molecules:
# Assay procedure: chemical recovery from spiked human plasma; higher = better extraction
# Protocol conditions: pooled human plasma; extraction method: SPE only (HLB 96-well)
Experimental readout: chemical recovery

molecule=Cc1ccc(-c2cc(C(F)(F)F)nn2-c2ccc(S(N)(=O)=O)cc2)cc1 result=33.2%
molecule="Cc1cc(O)cc(C)c1[S+](C)[O-] (centres undefined) [Methiocarb-sulfoxide phenol]" result=45.3%
molecule=N#Cc1cc(Br)c(O)c(Br)c1 result=43.9%
molecule="COc1ccc2[nH]c(SCc3ncc(C)c(OC)c3C)nc2c1 [Omeprazole-sulfide]" result=42%
molecule=CCCCOCCOCCOCCO result=109%
molecule=Cc1ccc2ccccc2c1 result=2.91%
molecule=CC(=O)NCCNC(C)=O result=0.155%
molecule="Cc1c2ccccc2cc2c1cc(Br)c1ccccc12 [5-Bromo-7-methylbenzo[a]anthracene]" result=1.01%
molecule="Cc1cccc(C)c1N(Cn1cccn1)C(=O)C[S+]([O-])CC(=O)O (centres undefined)" result=48.2%

---

# Assay procedure: chemical recovery from spiked human plasma; higher = better extraction
# Protocol conditions: pooled human plasma; extraction method: SPE only (HLB 96-well)
This section presents compounds with their documented chemical recovery values.
Experimental readout: chemical recovery (%)

compound="Cn1c(N)nc2ncc(-c3ccccc3)cc21 [2-Amino-1-methyl-6-phenylimidazo[4,5-b]pyridine (PhIP)]" experimental_readout="chemical recovery" units_of_measure=% numeric_result=39.3
compound=COCCN(C(=O)CCl)c1c(C)cccc1C experimental_readout="chemical recovery" units_of_measure=% numeric_result=46.6
compound="Oc1cccc2n[nH]nc12 [4-Hydroxybenzotriazole]" experimental_readout="chemical recovery" units_of_measure=% numeric_result=32.8
compound=COc1cc(Cl)c(OC)cc1N experimental_readout="chemical recovery" units_of_measure=% numeric_result=26.5
compound="CC(c1ccc(O)cc1)(c1ccc(O)cc1)c1ccc(O)cc1 [1,1,1-Tris(4-hydroxyphenyl)ethane]" experimental_readout="chemical recovery" units_of_measure=% numeric_result=43.2
compound=Cc1cc(C(C)(C)c2ccc(O)c(C)c2)ccc1O experimental_readout="chemical recovery" units_of_measure=% numeric_result=34.5
compound="CCCCCCCCCCCCCCCC(=O)NCCO [Palmitoylethanolamide]" experimental_readout="chemical recovery" units_of_measure=% numeric_result=33.5
compound=CN(C)C(=O)NC1CCCCC1 experimental_readout="chemical recovery" units_of_measure=% numeric_result=35.4
compound="CN1C(=O)C(O)N=C(c2ccccc2)c2cc(Cl)ccc21 (centres undefined)" experimental_readout="chemical recovery" units_of_measure=% numeric_result=46.8
compound="CN(C)CCOC(c1ccccc1)c1ccccc1 [Diphenhydramine]" experimental_readout="chemical recovery" units_of_measure=% numeric_result=44.7
compound=CC(C)NC(=O)N1CC(=O)N(c2cc(Cl)cc(Cl)c2)C1=O experimental_readout="chemical recovery" units_of_measure=% numeric_result=28.3
compound=N#Cc1nn(-c2c(Cl)cc(C(F)(F)F)cc2Cl)c(N)c1C(F)(F)F experimental_readout="chemical recovery" units_of_measure=% numeric_result=30.2
compound="CCCCC(CC)COC(=O)C(C#N)=C(c1ccccc1)c1ccccc1 (centres undefined)" experimental_readout="chemical recovery" units_of_measure=% numeric_result=2.21
compound=CO/C=C(/C(=O)OC)c1ccccc1Oc1cc(Oc2ccccc2C#N)ncn1 experimental_readout="chemical recovery" units_of_measure=% numeric_result=46.7
compound=CO/N=C(/C(=O)OC)c1ccccc1CO/N=C(\C)c1cccc(C(F)(F)F)c1 experimental_readout="chemical recovery" units_of_measure=% numeric_result=48
compound=COC[P+](c1ccccc1)(c1ccccc1)c1ccccc1 experimental_readout="chemical recovery" units_of_measure=% numeric_result=36.1
compound=CNC(=O)O/N=C(\C)SC experimental_readout="chemical recovery" units_of_measure=% numeric_result=47.3
compound="CC(Oc1ccc(Oc2ncc(C(F)(F)F)cc2Cl)cc1)C(=O)O (centres undefined)" experimental_readout="chemical recovery" units_of_measure=% numeric_result=33.1
compound="C#CCOc1ccc(CCNC(=O)C(OCC#C)c2ccc(Cl)cc2)cc1OC (centres undefined)" experimental_readout="chemical recovery" units_of_measure=% numeric_result=58.4

---

# Assay procedure: chemical recovery into PDMS from spiked human plasma; higher = better extraction
# Protocol conditions: pooled human plasma; extraction method: PES with PDMS; equilibration time (d): 6
Experimental readout: chemical recovery into PDMS (%)

compound="O=P1(NCCCl)OCCCN1CCCl (stereo not given) [Ifosfamide]" numeric_result=6.9
compound="CCOC(=O)CC(O)(CC(=O)OCC)C(=O)OCC [Triethylcitrate]" numeric_result=26.2
compound=O=C(Nc1ccc(F)cc1)c1cccc(Oc2cccc(C(F)(F)F)c2)n1 numeric_result=50.4
compound="NC(=O)N1c2ccccc2C=Cc2cc(O)ccc21 [2-Hydroxycarbamazepine]" numeric_result=0.788
compound="CCCC1COC(Cn2cncn2)(c2ccc(Cl)cc2Cl)O1 (stereo not given)" numeric_result=40.7

---

# Assay procedure: chemical recovery from spiked human plasma; higher = better extraction
# Protocol conditions: pooled human plasma; extraction method: PES+SPE (3 d PDMS equilibration then HLB SPE)
This listing pairs molecules with measured chemical recovery.
Experimental readout: chemical recovery

molecule="CCCCC(CC)COC(=O)C(C#N)=C(c1ccccc1)c1ccccc1 (stereo unspecified) [Octocrylene]" result=73.7%
molecule="O=S(=O)(O)CCNC1CCCCC1 [2-(Cyclohexylamino)-ethansulfonic-acid]" result=0.697%
molecule="CC(C)Oc1cccc(NC(=O)c2ccccc2C(F)(F)F)c1 [Flutolanil]" result=53.5%
molecule="COc1ccc(C(=O)c2ccccc2)c(O)c1 [Benzophenone-3]" result=41.3%
molecule="CCCCCCCCCCS(=O)(=O)O [1-Decanesulfonic-acid]" result=42%
molecule="Nc1ccc2c(n1)[nH]c1ccccc12 [2-Amino-9H-pyrido[2,3-b]indole (AalphaC)]" result=17%
molecule="Nc1cccc2ccccc12 [1-Naphthylamine]" result=4.07%
molecule="c1ccc2[nH]c(-c3cscn3)nc2c1 [Thiabendazole]" result=40.6%
molecule="C/C(=N\\C#N)N(C)Cc1ccc(Cl)nc1 [Acetamiprid]" result=51.9%
molecule="CCCC1CC(C(=O)NC(C(C)Cl)C2OC(SC)C(O)C(O)C2O)N(C)C1 (stereo unspecified) [Clindamycin]" result=36.7%
molecule="CC(C)NCC(O)COc1cccc2[nH]ccc12 (stereo unspecified) [Pindolol]" result=42.3%
molecule="COc1c(C)c2c(c(O)c1C/C=C(\\C)CCC(=O)O)C(=O)OC2 [Mycophenolic acid]" result=44%
molecule="CCN(CC)c1ccccc1 [N,N-Diethylaniline]" result=0.987%
molecule="O=C(O)c1ccccc1Nc1cccc(C(F)(F)F)c1 [Flufenamic-acid]" result=58%
molecule="O=C(Nc1ccccc1-c1ccc(Cl)cc1)c1cccnc1Cl [Boscalid]" result=63.9%
molecule="Nc1ccccc1 [Aniline]" result=4.94%
molecule="O=c1ccc2ccccc2[nH]1 [2-Hydroxyquinoline]" result=57.1%
molecule="Cc1cccc(C)c1N(Cn1cccn1)C(=O)CCl [Metazachlor]" result=42.8%
molecule="CC(=O)CCCCn1c(=O)c2c(ncn2C)n(C)c1=O [Pentoxifylline]" result=57.2%
molecule="c1ccc2[nH]cnc2c1 [Benzimidazole]" result=16.9%
molecule="O=C(O)C(F)(F)C(F)(F)C(F)(F)C(F)(F)C(F)(F)F [Perfluorohexanoic acid]" result=40.2%
